Target: Neu5Ac(a2-6)Gal(b1-4)GlcNAc(b1-2)Man(a1-3)[GlcNAc(b1-4)][Neu5Ac(a2-6)Gal(b1-4)GlcNAc(b1-2)Man(a1-6)]Man(b1-4)GlcNAc(b1-4)GlcNAc
Test: glycan array binding signal (z-score within array); higher = stronger binding
Details: glycan notation: IUPAC condensed, linker removed
This excerpt belongs to a sample that is enriched for the strongest signals.
Tick T if glycan array binding signal (z-score) is -0.8 or greater. Tick F if glycan array binding signal (z-score) is less than -0.8.

Lookup: Please indicate if the recorded glycan array binding signal (z-score) for Vd2LysM (Verticillium dahliae) (protein) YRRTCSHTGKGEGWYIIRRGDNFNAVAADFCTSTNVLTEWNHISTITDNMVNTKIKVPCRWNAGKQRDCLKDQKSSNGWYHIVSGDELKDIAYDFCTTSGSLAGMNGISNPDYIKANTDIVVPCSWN meets or exceeds -0.8.
Found: T

Lookup: Please indicate if the recorded glycan array binding signal (z-score) for Epa20 (Candida glabrata) (protein) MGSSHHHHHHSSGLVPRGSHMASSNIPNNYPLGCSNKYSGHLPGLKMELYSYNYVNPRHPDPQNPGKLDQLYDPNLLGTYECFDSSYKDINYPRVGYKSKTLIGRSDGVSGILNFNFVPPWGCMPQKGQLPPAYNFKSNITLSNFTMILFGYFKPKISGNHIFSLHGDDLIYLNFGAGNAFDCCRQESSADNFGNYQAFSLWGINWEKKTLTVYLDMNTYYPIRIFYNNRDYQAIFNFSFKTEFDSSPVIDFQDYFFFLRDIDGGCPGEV meets or exceeds -0.8.
Found: T

Lookup: Please indicate if the recorded glycan array binding signal (z-score) for FimA-N2 (Actinomyces oris) (protein) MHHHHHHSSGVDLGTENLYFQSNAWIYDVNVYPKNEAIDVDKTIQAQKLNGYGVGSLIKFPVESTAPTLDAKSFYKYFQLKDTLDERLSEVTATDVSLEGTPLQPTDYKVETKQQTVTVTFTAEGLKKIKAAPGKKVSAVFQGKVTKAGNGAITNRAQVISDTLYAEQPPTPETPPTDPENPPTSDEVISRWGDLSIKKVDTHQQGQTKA meets or exceeds -0.8.
Found: F

Lookup: Please indicate if the recorded glycan array binding signal (z-score) for Clone646PsrP (Streptococcus pneumoniae) (protein) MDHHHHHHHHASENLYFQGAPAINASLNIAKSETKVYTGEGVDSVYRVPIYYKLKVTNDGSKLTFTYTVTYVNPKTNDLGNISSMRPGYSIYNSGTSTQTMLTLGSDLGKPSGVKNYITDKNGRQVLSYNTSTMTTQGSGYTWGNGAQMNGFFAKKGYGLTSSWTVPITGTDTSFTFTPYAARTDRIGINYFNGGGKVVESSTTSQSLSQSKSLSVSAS meets or exceeds -0.8.
Found: F

Lookup: Please indicate if the recorded glycan array binding signal (z-score) for Epa1 (Candida glabrata) (protein) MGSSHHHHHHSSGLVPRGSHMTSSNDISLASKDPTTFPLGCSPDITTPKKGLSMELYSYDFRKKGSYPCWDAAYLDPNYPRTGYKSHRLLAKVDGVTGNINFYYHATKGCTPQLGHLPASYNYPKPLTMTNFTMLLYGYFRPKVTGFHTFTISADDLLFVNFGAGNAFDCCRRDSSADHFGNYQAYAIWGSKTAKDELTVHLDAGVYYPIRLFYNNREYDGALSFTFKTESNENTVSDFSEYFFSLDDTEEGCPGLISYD meets or exceeds -0.8.
Found: T
